B1: PTPLAD1 (parent)
chain: YSFYMLTCIDMDWKVLTWLRYTLW

Variants of: B1
method description: protein stability index of a GFP-peptide fusion (GPS, HEK-293T) (PSI 1-6); higher = more stable;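 further: lentivirally expressed fusions sorted by FACS into six bins by GFP to DsRed ratio, PSI derived from sequencing read proportions per bin multiplied by bin number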
conditions used: c terminus: a fixed tail appended
As shown below, each of these variants has a reported protein stability index value.
measured parameter: protein stability index

{"mut": "S2D", "reported measurement": 1.35}
{"mut": "T7K", "reported measurement": 2.49}
{"mut": "C8H", "reported measurement": 2.1}
{"mut": "R20K", "reported measurement": 3.46}
{"mut": "V15K", "reported measurement": 3.92}
{"mut": "D10R", "reported measurement": 3.09}
{"mut": "F3Y", "reported measurement": 3.36}
{"mut": "I9G", "reported measurement": 2.4}
{"mut": "D12G", "reported measurement": 2.15}
{"mut": "T22C", "reported measurement": 2.07}
{"mut": "F3S", "reported measurement": 2.61}
{"mut": "L6T", "reported measurement": 2.85}
{"mut": "L6Y", "reported measurement": 3.68}
{"mut": "Y21G", "reported measurement": 3.32}
{"mut": "W13L", "reported measurement": 2.72}
{"mut": "W13Y", "reported measurement": 4.08}
{"mut": "W24G", "reported measurement": 2.39}
{"mut": "D12C", "reported measurement": 1.65}
{"mut": "W24F", "reported measurement": 2.24}
{"mut": "W24A", "reported measurement": 2.83}
{"mut": "R20L", "reported measurement": 1.23}
{"mut": "R20M", "reported measurement": 2.04}
{"mut": "S2P", "reported measurement": 2.62}
{"mut": "W24K", "reported measurement": 1.37}
{"mut": "S2V", "reported measurement": 1.58}
{"mut": "L19H", "reported measurement": 2.65}
{"mut": "D12R", "reported measurement": 2.18}
{"mut": "T22H", "reported measurement": 2.85}
{"mut": "Y1D", "reported measurement": 1.5}
{"mut": "C8E", "reported measurement": 2.25}
{"mut": "M11I", "reported measurement": 2.67}
{"mut": "M11N", "reported measurement": 1.86}
{"mut": "Y4W", "reported measurement": 2.12}
{"mut": "M11L", "reported measurement": 3.18}
{"mut": "L16R", "reported measurement": 2.13}
{"mut": "W13F", "reported measurement": 2.73}
{"mut": "T22A", "reported measurement": 2.78}
{"mut": "R20F", "reported measurement": 1.28}
{"mut": "M5S", "reported measurement": 1.4}
{"mut": "S2A", "reported measurement": 2.3}
{"mut": "W18D", "reported measurement": 1.68}
{"mut": "W13N", "reported measurement": 4.03}
{"mut": "L23W", "reported measurement": 2.4}
{"mut": "M5G", "reported measurement": 2.15}
{"mut": "W13E", "reported measurement": 2.56}
{"mut": "C8F", "reported measurement": 2.48}
{"mut": "M11A", "reported measurement": 3.31}
{"mut": "D10F", "reported measurement": 3.86}
{"mut": "M11Y", "reported measurement": 3.68}
{"mut": "Y1N", "reported measurement": 2.57}
{"mut": "W18M", "reported measurement": 1.84}
{"mut": "I9H", "reported measurement": 1.65}
{"mut": "T17F", "reported measurement": 3.31}
{"mut": "C8T", "reported measurement": 2.51}
{"mut": "M5F", "reported measurement": 3.81}
{"mut": "L16E", "reported measurement": 2.06}
{"mut": "D12T", "reported measurement": 1.91}
{"mut": "D12L", "reported measurement": 2.09}
{"mut": "L16V", "reported measurement": 1.5}
{"mut": "Y21I", "reported measurement": 2.98}
{"mut": "Y4C", "reported measurement": 4.29}
{"mut": "Y1R", "reported measurement": 1.4}
{"mut": "R20Y", "reported measurement": 2.42}
{"mut": "M5I", "reported measurement": 3.07}
{"mut": "T7M", "reported measurement": 2.02}
{"mut": "C8I", "reported measurement": 3.23}
{"mut": "L19M", "reported measurement": 1.93}
{"mut": "D10A", "reported measurement": 3.85}
{"mut": "D12P", "reported measurement": 1.94}
{"mut": "Y1T", "reported measurement": 2.2}
{"mut": "M11V", "reported measurement": 2.87}
{"mut": "W24E", "reported measurement": 2.77}
{"mut": "S2I", "reported measurement": 2.41}
{"mut": "L6Q", "reported measurement": 1.31}
{"mut": "W13V", "reported measurement": 3.87}
{"mut": "L6P", "reported measurement": 2.45}
{"mut": "F3L", "reported measurement": 1.03}
{"mut": "R20P", "reported measurement": 3.84}
{"mut": "F3D", "reported measurement": 2}
{"mut": "W13M", "reported measurement": 1.66}
{"mut": "W13R", "reported measurement": 2.4}
{"mut": "D12V", "reported measurement": 1.79}
{"mut": "Y1Q", "reported measurement": 3.61}
{"mut": "Y21C", "reported measurement": 4.75}
{"mut": "L23H", "reported measurement": 2.58}
{"mut": "T17I", "reported measurement": 2.68}
{"mut": "F3H", "reported measurement": 1.93}
{"mut": "L19I", "reported measurement": 2.06}
{"mut": "W24N", "reported measurement": 2.55}
{"mut": "T7A", "reported measurement": 2.65}
{"mut": "C8A", "reported measurement": 2.9}
